Consider the following molecules and their measured IC50 readings.
assay: cells; assay type: functional
The source made the active and inactive calls. The rule behind the calls is not given here.

# structure, IC50
records = [
    ("COc1ccc(C(=O)N/N=C/c2cccc3cccnc23)cc1", "3.44 µM (active)"),
    ("COc1cccc2cc(C(=O)NCc3ccc(F)cc3)c(=N)oc12", "> 50 µM (active)"),
    ("O=C(COc1ccc(-c2ccccc2)cc1)Nc1cccnc1", "4.39 µM (active)"),
    ("Cc1ccc(N2NC(=O)/C(=C/C=C/c3ccco3)C2=O)cc1C", "13 µM (active)"),
    ("CCn1nnc(NC(=O)c2sc3ccccc3c2Cl)n1", "19.2 µM (active)"),
]

###

Target: Nuclear receptor subfamily 0 group B member 1 (Homo sapiens, UniProt P51843)
Sequence (P51843 whole entry): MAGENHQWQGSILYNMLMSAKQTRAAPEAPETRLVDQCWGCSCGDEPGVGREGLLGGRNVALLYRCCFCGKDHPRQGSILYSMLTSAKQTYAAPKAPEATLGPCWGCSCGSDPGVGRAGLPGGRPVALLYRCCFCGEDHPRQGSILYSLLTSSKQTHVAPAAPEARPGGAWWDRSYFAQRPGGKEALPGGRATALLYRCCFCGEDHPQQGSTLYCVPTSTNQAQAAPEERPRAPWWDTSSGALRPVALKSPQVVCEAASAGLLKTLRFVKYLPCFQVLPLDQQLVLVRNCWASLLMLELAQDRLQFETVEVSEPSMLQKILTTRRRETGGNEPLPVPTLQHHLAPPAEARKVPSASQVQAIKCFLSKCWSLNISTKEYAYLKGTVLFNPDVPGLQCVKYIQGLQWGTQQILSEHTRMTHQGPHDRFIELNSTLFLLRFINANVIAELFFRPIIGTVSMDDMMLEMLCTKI
Assay: Luminescence-based cell-based high throughput dose response assay for inhibitors of the orphan nuclear receptor subfamily 0, group B, member 1 (DAX1; NR0B1). [Related pubchem assays (depositor defined):AID504766, AID504790]
Format: functional
Activity calls are given as the source filed them. No rule for the calls is given here.
The following molecules are listed with their measured IC50 values.
readout_kind: IC50

# molecule, test_result
data = [
    ("CC1=CC(c2ccccc2)n2nnnc2N1 (stereo not given)", "> 67.6 µM (inactive)"),
    ("COC(=O)c1cc(/N=C/c2c(O)oc3ccccc3c2=O)cc(C(=O)OC)c1", "> 67.5 µM (inactive)"),
    ("C/C(=N\\Nc1cccc2cccnc12)c1ccccc1O", "> 67.5 µM (inactive)"),
    ("C[C@@H]1CN(Cc2nc(-c3cccs3)no2)C[C@H](C)O1", "> 67.5 µM (inactive)"),
    ("CN(NC1OC(=O)c2ccccc21)c1ccccc1[N+](=O)[O-] (stereo not given)", "> 67.5 µM (inactive)"),
]

###

target: UniProtKB P08684; conditions: Potency
Sequence (P08684 whole entry): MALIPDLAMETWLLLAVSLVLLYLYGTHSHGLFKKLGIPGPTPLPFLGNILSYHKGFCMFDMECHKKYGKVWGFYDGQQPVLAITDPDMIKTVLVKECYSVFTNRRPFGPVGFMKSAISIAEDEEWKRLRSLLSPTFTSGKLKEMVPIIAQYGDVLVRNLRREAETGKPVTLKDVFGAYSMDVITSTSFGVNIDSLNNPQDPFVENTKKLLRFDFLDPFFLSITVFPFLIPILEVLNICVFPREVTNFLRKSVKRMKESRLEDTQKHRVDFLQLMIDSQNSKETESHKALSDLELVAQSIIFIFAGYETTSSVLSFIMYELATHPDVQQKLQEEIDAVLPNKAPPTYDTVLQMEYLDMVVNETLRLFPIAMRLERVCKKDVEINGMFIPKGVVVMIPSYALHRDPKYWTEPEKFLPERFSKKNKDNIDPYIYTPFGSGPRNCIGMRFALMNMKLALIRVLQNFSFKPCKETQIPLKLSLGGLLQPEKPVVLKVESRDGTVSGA

# compound, AC50
rows = [
    ("COc1ccc(-c2cc(=O)c3c(O)cc(O)c(-c4cc(-c5cc(=O)c6c(O)cc(O)cc6o5)ccc4OC)c3o2)cc1", "3.98 µM (inconclusive)"),
    ("Oc1ccc2c(c1)OC(c1ccc(O)c(O)c1)C(O)C2 (centres undefined)", "25.1 µM (inconclusive)"),
    ("CCCCCCC1=Cc2cc(OC)c(OC)cc2C(C2(C(=O)OCC)CCCC2=O)O1 (centres undefined)", "3.16 µM (inconclusive)"),
    ("COC(=O)N1CC=CC1(C)C(=O)NCc1ccc(C)o1 (centres undefined)", "15.8 µM (inconclusive)"),
    ("COc1ccc(OC2C=CC(C#Cc3ccc(C(C)(C)C)cc3)OC2CO)cc1 (centres undefined)", "3.98 µM (inconclusive)"),
    ("CC(=O)N1[C@H](C)C=C[C@]1(Cc1ccccc1)C(=O)O", "31.6 µM (inconclusive)"),
    ("O=c1c(O)cccc2cc(O)c(O)c(O)c12", "31.6 µM (inconclusive)"),
    ("C=CCSSCC=C", "25.1 µM (inconclusive)"),
    ("COC(=O)[C@]1(C)CC[C@@]2(C)CC[C@@]3(C)C4=CC=C5C(=CC(=O)C(O)=C5C)[C@@]4(C)CC[C@@]3(C)C2C1 (some centres undefined)", "31.6 µM (inconclusive)"),
]
